biological target: mouse EP1 receptor (Mus musculus (Mouse), UniProt P35375); experiment: Measurement of EP1 Antagonist Activity (inhibition of PGE2-induced increase in intracellular calcium); format: cell-based; details: cells expressing mouse EP1 receptor; increase in intracellular calcium induced by PGE2 (100 nM)
Sequence (P35375 whole entry): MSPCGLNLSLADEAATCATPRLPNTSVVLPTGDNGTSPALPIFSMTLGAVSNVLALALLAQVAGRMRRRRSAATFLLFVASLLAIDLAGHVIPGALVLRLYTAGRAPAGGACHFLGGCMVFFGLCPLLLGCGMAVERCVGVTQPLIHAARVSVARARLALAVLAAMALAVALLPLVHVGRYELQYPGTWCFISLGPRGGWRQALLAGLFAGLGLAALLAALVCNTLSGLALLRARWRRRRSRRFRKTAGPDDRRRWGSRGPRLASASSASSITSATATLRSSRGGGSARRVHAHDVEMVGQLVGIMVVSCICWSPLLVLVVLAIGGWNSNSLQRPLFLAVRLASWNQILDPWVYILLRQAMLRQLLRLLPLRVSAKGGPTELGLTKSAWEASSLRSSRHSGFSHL
READOUT: IC50 (nM)

{"COMPOUND": "Cc1cc(OCc2ccc(-c3nnn[nH]3)cc2Cl)c(N(C(C)C)S(=O)(=O)c2cccnc2)cc1C [Compound K]", "RECORDED VALUE": 3.7}
{"COMPOUND": "Cc1cc(C(=O)O)ccc1COc1cc2c(cc1N(CC(C)C)S(=O)(=O)c1nccs1)CCC2 [Compound A]", "RECORDED VALUE": 6.9}
{"COMPOUND": "Cc1csc(S(=O)(=O)N(c2cc(C)c(Cl)cc2OCc2ccc(-c3nnn[nH]3)cc2)C(C)C)n1 [Compound J]", "RECORDED VALUE": 4.9}

----------
As shown below, each of these molecules has a reported IC50 value.
Biological target: mouse EP1 receptor (Mus musculus (Mouse), UniProt P35375)
Experiment: Measurement of EP1 Antagonist Activity (inhibition of PGE2-induced increase in intracellular calcium)
Conditions: cells expressing mouse EP1 receptor; increase in intracellular calcium induced by PGE2 (100 nM)
Experimental: The cells expressing mouse EP1 receptor were seeded at 10^4 cells/well in 96-well plates and cultured for 2 days with 10% Fetal Bovine Serum (FBS)/alpha Modified Eagle Medium (αMEM) in the incubator (37° C., 5% CO2). […] Afterwards, compounds of the present invention (10 μL) or PGE2 (10 μL) prepared with assay buffer was added to each well and intracellular calcium concentrations were measured using a Fluorescence Drug Screening System (FDSS-4000, Hamamatsu Photonics K.K.). […]
READOUT: IC50 (nM)

{"STRUCTURE SMILES STRING": "Cc1csc(S(=O)(=O)N(CC(C)C)c2ccc(C(F)(F)F)cc2OCc2ccc(C=CC(=O)O)cc2)n1", "RECORDED VALUE": 25}
{"STRUCTURE SMILES STRING": "Cc1csc(S(=O)(=O)N(c2cc(C)c(C)cc2OCc2ccc(-c3noc(=O)[nH]3)cc2)C(C)C)n1", "RECORDED VALUE": 7.1}
{"STRUCTURE SMILES STRING": "Cc1cc(OCc2ccc(C=CC(=O)O)cc2C)c(N(CC(C)C)S(=O)(=O)c2cccnc2)cc1C", "RECORDED VALUE": 9.2}
{"STRUCTURE SMILES STRING": "Cc1ccc(S(=O)(=O)N(CC(C)C)c2cc3c(cc2OCc2ccc(C=CC(=O)O)cc2)CCC3)o1", "RECORDED VALUE": 21}
